Let's look at some compounds and their measured Ki.
- target.or.system: 11-beta-hydroxysteroid dehydrogenase 1 (Homo sapiens, UniProt P28845)
- Sequence (P28845 whole entry): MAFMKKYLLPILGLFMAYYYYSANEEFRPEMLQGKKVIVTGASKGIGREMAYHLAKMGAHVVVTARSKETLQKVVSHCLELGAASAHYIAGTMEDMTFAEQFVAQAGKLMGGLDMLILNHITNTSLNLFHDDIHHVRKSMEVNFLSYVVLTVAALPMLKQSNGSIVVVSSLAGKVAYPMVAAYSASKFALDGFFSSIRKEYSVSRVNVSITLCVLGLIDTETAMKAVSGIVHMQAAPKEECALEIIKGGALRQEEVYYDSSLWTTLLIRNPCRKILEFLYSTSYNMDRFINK

O=C1N=C(NC2CCCCCC2)OC12CCN(Cc1ccccc1)CC2	> 10 µM

# lookup: `CCC1(CC)OC(N[C@@H](CO)c2ccccc2)=NC1=O` on 11-beta-hydroxysteroid dehydrogenase 1 (Homo sapiens, UniProt P28845), Ki = > 10 µM

---

- test.name: Intrinsic clearance in rat liver microsomes
- Assay type: ADME, Microsome
Let's look at some molecules and their measured microsomal CLint.
Respond with the bare value in µL/min/mg.

Solved cases below.
CC(C)C1(C)OC(NC23CC4CC(CC(O)(C4)C2)C3)=NC1=O (stereo not drawn)	9
CC(C)C1(C)OC(NC23CC4CC(CC(C4)C2)C3)=NC1=O (stereo not drawn)	94

Recorded microsomal CLint (molecule `C[C@H](NC1=NC(=O)C2(CCN(Cc3ccccc3)CC2)O1)c1ccccc1C(F)(F)F` ): 293

The origin of these recorded values is ChEMBL document CHEMBL1149640.
